- Substrate: N[C@@H](CC(=O)O)C(=O)O
- test-description: purified protein
- run-parameters: co-substrate α-ketoglutarate (fixed, 0.1563–1.25 mM range), 16 µM PLP, 5 mM NAD+, 100 mM potassium phosphate pH 8, 37 °C
endpoint: kcat (s⁻¹)
Hi! Could you send only the number? It should be in s⁻¹, unit omitted.

>  <protein>
E. coli aspartate aminotransferase (AAT) (Escherichia coli K-12; K37F/N64T/T43I) (protein, full-length, N-terminal His-tag, expressed in E. coli BL21-Gold (DE3), Ni-NTA purified; 90 kDa homodimer, PLP-dependent) MFENITAAPADPILGLADLFRADERPGKINLGIGVYFDETGKIPVLTSVKKAEQYLLENETTKTYLGIDGIPEFGRCTQELLFGKGSALINDKRARTAQTPGGTGALRVAADFLAKNTSVKRVWVSNPSWPNHKSVFNSAGLEVREYAYYDAENHTLDFDALINSLNEAQAGDVVLFHGCCHNPTGIDPTLEQWQTLAQLSVEKGWLPLFDFAYQGFARGLEEDAEGLRAFAAMHKELIVASSYSKNFGLYNERVGACTLVAADSETVDRAFSQMKAAIRANYSNPPAHGASVVATILSNDALRAIWEQELTDMRQRIQRMRQLFVNTLQEKGANRDFSFIIKQNGMFSFSGLTKEQVLRLREEFGVYAVASGRVNVAGMTPDNMAPLCEAIVAVL

>  <unit-of-measurement>
s⁻¹

>  <kcat>
0.9

$$$$
>  <protein>
E. coli aspartate aminotransferase (AAT) (Escherichia coli K-12; K37I/N64S/T43F/V35A) (protein, full-length, N-terminal His-tag, expressed in E. coli BL21-Gold (DE3), Ni-NTA purified; 90 kDa homodimer, PLP-dependent) MFENITAAPADPILGLADLFRADERPGKINLGIGAYIDETGKFPVLTSVKKAEQYLLENETTKSYLGIDGIPEFGRCTQELLFGKGSALINDKRARTAQTPGGTGALRVAADFLAKNTSVKRVWVSNPSWPNHKSVFNSAGLEVREYAYYDAENHTLDFDALINSLNEAQAGDVVLFHGCCHNPTGIDPTLEQWQTLAQLSVEKGWLPLFDFAYQGFARGLEEDAEGLRAFAAMHKELIVASSYSKNFGLYNERVGACTLVAADSETVDRAFSQMKAAIRANYSNPPAHGASVVATILSNDALRAIWEQELTDMRQRIQRMRQLFVNTLQEKGANRDFSFIIKQNGMFSFSGLTKEQVLRLREEFGVYAVASGRVNVAGMTPDNMAPLCEAIVAVL

>  <unit-of-measurement>
s⁻¹

>  <kcat>
2.42

$$$$

Record E. coli aspartate aminotransferase (AAT) (Escherichia coli K-12; K37F/N64S/T43C) (protein, full-length, N-terminal His-tag, expressed in E. coli BL21-Gold (DE3), Ni-NTA purified; 90 kDa homodimer, PLP-dependent) MFENITAAPADPILGLADLFRADERPGKINLGIGVYFDETGKCPVLTSVKKAEQYLLENETTKSYLGIDGIPEFGRCTQELLFGKGSALINDKRARTAQTPGGTGALRVAADFLAKNTSVKRVWVSNPSWPNHKSVFNSAGLEVREYAYYDAENHTLDFDALINSLNEAQAGDVVLFHGCCHNPTGIDPTLEQWQTLAQLSVEKGWLPLFDFAYQGFARGLEEDAEGLRAFAAMHKELIVASSYSKNFGLYNERVGACTLVAADSETVDRAFSQMKAAIRANYSNPPAHGASVVATILSNDALRAIWEQELTDMRQRIQRMRQLFVNTLQEKGANRDFSFIIKQNGMFSFSGLTKEQVLRLREEFGVYAVASGRVNVAGMTPDNMAPLCEAIVAVL . Reported kcat: 6
